These measurements were taken from patent US20210196796A1.

binders and their reported Relative Proliferation Fold Change 3F8 1:2
Molecular target: T1, orthogonal hCD122 receptor (hoRb), hCD122 with H133D and Y134F (human, UniProt P14784 27-550); also: reference of the scale not given here
T1 sequence: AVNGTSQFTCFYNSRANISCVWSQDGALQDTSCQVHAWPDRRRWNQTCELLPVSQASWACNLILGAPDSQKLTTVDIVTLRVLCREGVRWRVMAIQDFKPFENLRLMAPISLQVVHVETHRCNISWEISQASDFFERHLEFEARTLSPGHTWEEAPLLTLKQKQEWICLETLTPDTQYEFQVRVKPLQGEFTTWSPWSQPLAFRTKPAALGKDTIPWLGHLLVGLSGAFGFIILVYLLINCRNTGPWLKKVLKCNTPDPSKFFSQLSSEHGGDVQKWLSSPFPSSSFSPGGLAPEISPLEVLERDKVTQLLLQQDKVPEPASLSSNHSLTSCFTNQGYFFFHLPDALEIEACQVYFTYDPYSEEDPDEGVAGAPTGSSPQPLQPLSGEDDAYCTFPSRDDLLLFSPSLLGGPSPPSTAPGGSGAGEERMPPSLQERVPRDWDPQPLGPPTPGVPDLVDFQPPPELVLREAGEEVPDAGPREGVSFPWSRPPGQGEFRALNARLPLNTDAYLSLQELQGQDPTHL
Test: cell-based or functional assay
TEST_READOUT: Relative Proliferation Fold Change 3F8 1:2 (fold)

BINDER: I86V, SQVLKA (ligand) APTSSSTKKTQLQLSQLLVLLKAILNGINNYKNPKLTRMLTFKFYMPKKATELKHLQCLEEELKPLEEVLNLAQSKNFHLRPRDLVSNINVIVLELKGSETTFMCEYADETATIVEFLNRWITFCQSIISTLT
VAL: 0.8

BINDER: L18M, SQVLKA (ligand) APTSSSTKKTQLQLSQLMVLLKAILNGINNYKNPKLTRMLTFKFYMPKKATELKHLQCLEEELKPLEEVLNLAQSKNFHLRPRDLISNINVIVLELKGSETTFMCEYADETATIVEFLNRWITFCQSIISTLT
VAL: 55

BINDER: Q126S, SQVLKA (ligand) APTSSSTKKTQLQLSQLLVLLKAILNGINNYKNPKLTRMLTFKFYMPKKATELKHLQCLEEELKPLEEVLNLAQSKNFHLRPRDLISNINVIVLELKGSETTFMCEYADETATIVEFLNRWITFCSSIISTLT
VAL: 19.3

BINDER: L18D, SQVLKA (ligand) APTSSSTKKTQLQLSQLDVLLKAILNGINNYKNPKLTRMLTFKFYMPKKATELKHLQCLEEELKPLEEVLNLAQSKNFHLRPRDLISNINVIVLELKGSETTFMCEYADETATIVEFLNRWITFCQSIISTLT
VAL: 92.5

BINDER: SQVLKQ (ligand) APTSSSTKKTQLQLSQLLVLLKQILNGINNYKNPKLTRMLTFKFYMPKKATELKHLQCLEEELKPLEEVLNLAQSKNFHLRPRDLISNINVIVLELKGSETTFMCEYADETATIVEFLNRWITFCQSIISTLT
VAL: 31.1

BINDER: G27K, SQVLKA (ligand) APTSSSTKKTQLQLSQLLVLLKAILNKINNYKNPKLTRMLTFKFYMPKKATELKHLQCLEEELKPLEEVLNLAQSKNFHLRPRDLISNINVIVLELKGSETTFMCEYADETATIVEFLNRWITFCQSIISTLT
VAL: 170

BINDER: Q126G, SQVLKA (ligand) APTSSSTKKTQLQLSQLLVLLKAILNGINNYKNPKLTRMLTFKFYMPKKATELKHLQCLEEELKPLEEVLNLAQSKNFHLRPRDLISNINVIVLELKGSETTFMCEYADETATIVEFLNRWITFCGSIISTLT
VAL: 7.05
